B1: POU domain, class 6, transcription factor 2, residues 609 to 663; numbered along this chain, P78424 (parent)
chain: KRRTSFTPQALEILNAHFEKNTHPSGQEMTEIAEKLNYDREVVRVWFCNKRQALK

Variants of: B1
Assay: abundance fitness (aPCA) (normalised: wild type 0, dead -1); higher = more abundant; growth selection in yeast, the domain comes from the species named
Details: Homo sapiens
Label Fulfilled for high-side abundance fitness (at or above -0.1) and Not fulfilled for low-side abundance fitness (below it).

Hi team, for R51D , is the recorded abundance fitness at or above -0.1?
Not fulfilled

Hi team, for E12P , is the recorded abundance fitness at or above -0.1?
Not fulfilled

Hi team, for Q27P , is the recorded abundance fitness at or above -0.1?
Fulfilled

Hi team, for R44P , is the recorded abundance fitness at or above -0.1?
Not fulfilled
